Numbers sourced from patent US11566007B2.

- TARGET DESC: NRAS Q61R (Homo sapiens (Human), UniProt P01111+P62937, Q61R)
- Sequence (P01111 whole entry Q61R): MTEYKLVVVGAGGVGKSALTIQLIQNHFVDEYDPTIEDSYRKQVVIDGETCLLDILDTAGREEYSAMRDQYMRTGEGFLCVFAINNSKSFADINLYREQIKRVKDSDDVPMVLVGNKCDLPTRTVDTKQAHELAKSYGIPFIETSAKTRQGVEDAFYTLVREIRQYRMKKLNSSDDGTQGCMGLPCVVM
- Sequence (P62937 whole entry): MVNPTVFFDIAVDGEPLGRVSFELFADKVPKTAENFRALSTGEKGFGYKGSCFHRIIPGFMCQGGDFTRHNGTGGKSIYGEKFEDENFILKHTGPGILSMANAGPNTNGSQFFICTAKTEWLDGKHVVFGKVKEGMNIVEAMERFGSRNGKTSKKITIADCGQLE
- ASSAY TEXT: Ras-Raf (BRAF RBD) disruption / FRET / MOA assay, NRAS Q61R
- Assay type: biochemical
- ASSAY SETUP: NRAS Q61R; Ras-Raf disruption/FRET/MOA assay; read-out: IC50* NRAS Q61R FRET data
pIC50: −log10 of the molar value.
REPORTED ENDPOINT: pIC50

{"MOLECULE": "CO[C@@H](C)c1ncccc1-c1c2c3cc(ccc3n1CC(F)(F)F)-c1cccc(c1)C[C@H](NC(=O)[C@@H](COC1CN(C(=O)C#CC3(C)OCCO3)C1)C(C)C)C(=O)N1CCC[C@H](N1)C(=O)OCC(C)(C)C2 (atropisomer, axis not shown) [Example A703]", "REPORTED ENDPOINT": "pIC50", "RESULT": "< 5.00"}
{"MOLECULE": "C=CC(=O)N1CC[C@H](C(=O)N(C)[C@H](C(=O)N[C@H]2Cc3cc(F)cc(c3)-c3ccc4c(c3)c(c(-c3cccnc3[C@H](C)OC)n4CC)CC(C)(C)COC(=O)[C@@H]3CCCN(N3)C2=O)C(C)C)C1 (atropisomer, axis not shown) [Example A342]", "REPORTED ENDPOINT": "pIC50", "RESULT": "5.00 to 6.00"}
{"MOLECULE": "C=CC(=O)N1CC[C@H](N(C)C(=O)N(C)[C@H](C(=O)N[C@H]2Cc3nc(cs3)-c3ccc4c(c3)c(c(-c3cccnc3[C@H](C)OC)n4CC)CC(C)(C)COC(=O)[C@@H]3CCCN(N3)C2=O)C(C)C)C1 (atropisomer, axis not shown) [Example A728]", "REPORTED ENDPOINT": "pIC50", "RESULT": "6.00 to 7.00"}
{"MOLECULE": "C=CC(=O)N1CC2(CCN(C(=O)N(C)[C@H](C(=O)N[C@H]3Cc4cccc(c4)-c4ccc5c(c4)c(c(-c4cccnc4[C@H](C)OC)n5CC)CC(C)(C)COC(=O)[C@@H]4CCCN(N4)C3=O)C(C)C)CC2)C1 (atropisomer, axis not shown) [Example A680]", "REPORTED ENDPOINT": "pIC50", "RESULT": "6.00 to 7.00"}
{"MOLECULE": "C=CC(=O)N1CCO[C@H]2CN(C(=O)N(C)[C@H](C(=O)N[C@H]3Cc4coc(n4)-c4ccc5c(c4)c(c(-c4cccnc4[C@H](C)OC)n5CC(F)(F)F)CC(C)(C)COC(=O)[C@@H]4CCCN(N4)C3=O)C(C)C)C[C@H]21 (atropisomer, axis not shown) [Example A574]", "REPORTED ENDPOINT": "pIC50", "RESULT": "5.00 to 6.00"}
{"MOLECULE": "CO[C@@H](C)c1ncccc1-c1c2c3cc(ccc3n1CC(F)(F)F)-c1csc(n1)C[C@H](NC(=O)[C@H](C(C)C)N(C)C(=O)N1C[C@@H]3OCCN(C(=O)/C=C/CN(C)C)[C@@H]3C1)C(=O)N1CCC[C@H](N1)C(=O)OCC(C)(C)C2 (atropisomer, axis not shown) [Example A573]", "REPORTED ENDPOINT": "pIC50", "RESULT": "6.00 to 7.00"}
{"MOLECULE": "C=CC(=O)N1CCC2(CC1)CCN(C(=O)N(C)[C@H](C(=O)N[C@H]1Cc3nc(cs3)-c3ccc4c(c3)c(c(-c3cccnc3[C@H](C)OC)n4CC)CC(C)(C)COC(=O)[C@@H]3CCCN(N3)C1=O)C(C)C)CC2 (atropisomer, axis not shown) [Example A697]", "REPORTED ENDPOINT": "pIC50", "RESULT": "7.00 to 8.00"}
